Condition summary: in ethyl acetate, 303.15 K

>  <Test smiles>
c1ccc2[nH]cnc2c1

>  <solubility (mole fraction)>
0.0143

$$$$

====

Condition summary: in sec-butanol, 318.15 K

>  <Test smiles>
c1ccc2[nH]cnc2c1

>  <solubility (mole fraction)>
0.151

$$$$

====

Condition summary: in acetonitrile, 303.15 K

>  <Test smiles>
c1ccc2[nH]cnc2c1

>  <solubility (mole fraction)>
0.0107

$$$$

====

Condition summary: in ethanol, 313.15 K

>  <Test smiles>
c1ccc2[nH]cnc2c1

>  <solubility (mole fraction)>
0.125

$$$$

====

Condition summary: in isobutanol, 308.15 K

>  <Test smiles>
c1ccc2[nH]cnc2c1

>  <solubility (mole fraction)>
0.125

$$$$
